system: SR leukemia; experiment: NCI tumour cell line growth inhibition, 48 h
Below, each of the molecules is paired with its reported TGI value.

# molecule, TGI
measured = [
    ("CN(C)c1ccc(/C=C/c2cc[n+](C)c(/C=C/c3ccc(N(C)C)cc3)c2)cc1", "2.45 µM"),
    ("C=C1CCC([N+](=O)[O-])[C@](C)(N=O)CC[C@@H]2C1CC2(C)C (stereo not given in full)", "> 100 µM"),
    ("C[C@@H]1CC[C@@H]2[C@@H](C1)O[C@@H]([C@H](C)OCc1ccccc1)SC2(C)C", "35.6 µM"),
    ("Cc1ccc(O)c(NC(=O)c2ccc(CNc3ccnc(C(F)(F)F)c3)cc2)c1", "30 µM"),
    ("Cc1cnc(C(=O)Nc2nc3ccc(S(=O)(=O)Nc4ccc(C5(C(F)(F)F)CC5)cc4)cc3[nH]2)cn1", "> 39.5 µM"),
    ("COC(=O)Nc1nc2ccc(Br)cc2[nH]1", "> 100 µM"),
    ("COc1cc(C2CC(c3ccc(Nc4ccnc5cc(Cl)ccc45)cc3)=NN2c2ccc(Cl)cc2)cc(OC)c1OC (stereo not given)", "56.3 µM"),
    ("C=CCc1cccc2cc(C(=O)Nc3ccccn3)c(=N)oc12", "> 100 µM"),
    ("CC1(C)CCC[C@]2(C)[C@H]3[C@H](C#N)c4cc(O)c(O)cc4O[C@@]3(C)CC[C@@H]12", "> 10 µM"),
    ("Nn1c(Cc2ccc([N+](=O)[O-])cc2)n[nH]c1=O", "> 100 µM"),
]

* * *

TGI for assorted compounds
test system: HCC-2998 colon; test: NCI tumour cell line growth inhibition, 48 h
recorded.metric: TGI

# compound, assayed.target, recorded.metric, data.value
rows = [
    ("CC1=C(C(=O)Nc2ccccc2)C2(CCCCC2)C(C#N)=C(SCC(=O)Nc2ccc(Br)cc2)N1", "HCC-2998 colon", "TGI", "10.4 µM"),
    ("CC(=O)OCC1OC(n2c(-c3ccc(C)cc3)cc(-c3ccccc3)c(C#N)c2=S)C(OC(C)=O)C(OC(C)=O)C1OC(C)=O (centres undefined)", "HCC-2998 colon", "TGI", "> 100 µM"),
    ("Cc1ccc(S(=O)(=O)NNCNC(=O)c2ccccc2)cc1", "HCC-2998 colon", "TGI", "> 100 µM"),
    ("CC(=O)C1CC[C@@H]2[C@H](CC[C@]3(C)[C@@H](O)CC[C@@H]23)[C@H]1C(=O)O (some centres undefined)", "HCC-2998 colon", "TGI", "> 100 µM"),
    ("COc1cc(Nc2ncc(F)c(Nc3ccc4c(n3)N(COP(=O)(O)O)C(=O)C(C)(C)O4)n2)cc(OC)c1OC", "HCC-2998 colon", "TGI", "> 100 µM"),
    ("COc1cc2c(cc1OCCCC(=O)Nc1ccc3ccc4cccc5ccc1c3c45)N=C[C@@H]1CCCN1C2=O", "HCC-2998 colon", "TGI", "< 0.0157 µM"),
    ("CC(C(O)c1ccccc1)C(O)(C(F)(F)F)C(F)(F)F (centres undefined)", "HCC-2998 colon", "TGI", "> 100 µM"),
    ("NC(N)=NS(=O)(=O)c1ccc(NCCc2c3ccccc3nc3ccccc23)cc1", "HCC-2998 colon", "TGI", "> 100 µM"),
    ("C[N+]1=C(/C=C\\C=C\\c2ccccc2)C(C)(C)c2ccccc21", "HCC-2998 colon", "TGI", "14.9 µM"),
]

* * *

As shown below, each of these molecules has a reported TGI value.
test system: NCI-H460 lung; assay: NCI tumour cell line growth inhibition, 48 h

# molecule, assayed.target, TGI
records = [
    ("CCCCCCCCCCCCCCCCCCN(C)CC(COP(=O)([O-])OCC[N+](C)(C)C)OC (stereo unspecified)", "NCI-H460 lung", "12.2 µM"),
    ("O=C1C(=O)c2cccnc2-c2ncccc21", "NCI-H460 lung", "0.774 µM"),
    ("O=C1CSC(c2cccc([N+](=O)[O-])c2)N1c1ccc(-n2c(-c3ccccc3)nc3ccccc3c2=O)cc1 (stereo unspecified)", "NCI-H460 lung", "> 100 µM"),
    ("Cc1nc2c(=O)n(C)ncc2[nH]1", "NCI-H460 lung", "> 100 µM"),
    ("O=c1cccccc1[O-].O=c1cccccc1[O-].O=c1cccccc1[O-].[La+3]", "NCI-H460 lung", "> 100 µM"),
    ("Cc1ccc2c(c1)-c1nc(N)c(C#N)c(-c3ccccc3)c1CCS2(=O)=O", "NCI-H460 lung", "> 100 µM"),
    ("CC(=O)Nc1ccc(C2SCc3nc4ccccc4n32)cc1 (stereo unspecified)", "NCI-H460 lung", "> 100 µM"),
    ("C=CCc1cccc2cc(C(=O)Nc3ccccn3)c(=N)oc12", "NCI-H460 lung", "> 100 µM"),
    ("O=c1/c(=C/c2ccc(-c3ccc(Cl)cc3Cl)o2)sc2n1[C@@H](c1ccc(Cl)cc1)C=C(c1cc(F)c(Cl)cc1Cl)N=2", "NCI-H460 lung", "> 100 µM"),
    ("C[N+]1=C(/C=C\\C=C\\c2ccccc2)C(C)(C)c2ccccc21", "NCI-H460 lung", "17.2 µM"),
    ("CC(C)OP(=O)(NC(=S)c1ccccc1)OC(C)C", "NCI-H460 lung", "> 100 µM"),
    ("C#CCOc1cccc(Nc2ncnc3cc(NC(=O)CCl)ccc23)c1", "NCI-H460 lung", "12.1 µM"),
    ("Cn1cc2ccccc2c1-c1nc(F)nc(OCC(=O)[C@H]2CCC3[C@@H]4CCC5=CC(=O)CC[C@]5(C)C4[C@@H](O)C[C@@]32C)n1 (stereo partly specified)", "NCI-H460 lung", "52.2 µM"),
    ("Cc1ccc(Cl)cc1NC(=O)c1sc2nc3c(cc2c1N)C(=O)CCC3", "NCI-H460 lung", "> 100 µM"),
    ("CC1=C(C(=O)Nc2ccccc2)C2(CCCCC2)C(C#N)=C(SCC(=O)Nc2ccc(Br)cc2)N1", "NCI-H460 lung", "11.4 µM"),
    ("CCOC(=O)c1ccc(N=c2sc3ccccc3nc2Nc2ccc(C(=O)OCC)cc2)cc1", "NCI-H460 lung", "> 100 µM"),
    ("O=C1C(c2c(O)[nH]c3ccc(Br)cc23)=Nc2ccccc21", "NCI-H460 lung", "44.6 µM"),
    ("N#CC1CCCCCCCCCCC(=O)N(CCCl)C1=O (stereo unspecified)", "NCI-H460 lung", "> 100 µM"),
    ("COc1ccc(OCC(=O)O)c(C(=O)CCC(=O)O)c1", "NCI-H460 lung", "> 100 µM"),
    ("O=Cc1c(O)c(C(=O)Nc2ccc3[nH]c(=O)[nH]c3c2)cc2ccccc12", "NCI-H460 lung", "> 100 µM"),
    ("CCN(CC)C(=O)C(C)n1cc(C)c(=O)[nH]c1=O (stereo unspecified)", "NCI-H460 lung", "> 100 µM"),
]

* * *

tested on: EKVX NSCLC; assay: NCI tumour cell line growth inhibition, 48 h

# compound, qualifier, TGI / µM
data = [
    ("C[N+]1=C(/C=C\\C=C\\c2ccccc2)C(C)(C)c2ccccc21", "=", 14.4),
    ("Nn1c(Cc2ccc([N+](=O)[O-])cc2)n[nH]c1=O", ">", 100),
    ("CCOC(=O)c1c(N2CCOCC2)[nH]c(=O)c(C(c2ccco2)c2c(O)c(C(=O)OCC)c(N3CCOCC3)[nH]c2=O)c1O", ">", 100),
    ("CO/N=C(\\C)CCC#Cc1ccccc1C(=O)OC", ">", 10),
    ("CN(C)CCCNC(=O)c1cc(NC(=O)c2cc(NC(=O)CCNS(=O)(=O)c3ccc4c(c3)C(=O)c3ccccc3C4=O)cn2C)cn1C", ">", 100),
    ("CCN1CCN(CC(=O)N2c3cccc4cccc(c34)N(C(=O)CN3CCN(CC)CC3)C2c2cn(-c3ccccc3)nc2-c2cccc([N+](=O)[O-])c2)CC1", "=", 3.79),
    ("CCN(CC)c1ccc(N=Nc2ccc(-c3nc4ccc[n+](C)c4o3)cc2)cc1", "=", 26.7),
    ("O=C1C[C@@H]2/C(=C(O)\\C=C\\c3ccccc3)C(=O)C=C[C@@H]2O1", "=", 26),
    ("COC(=O)C(CCSC)NC(=O)Cc1ccc(C(=O)c2ccccc2)cc1 (configuration not stated)", ">", 100),
    ("COc1ccc(SCc2cc(OCc3ccccc3)c(OCc3ccccc3)c(OCc3ccccc3)c2)cc1", "=", 4.37),
    ("O=C1C(c2c(O)[nH]c3ccc(Br)cc23)=Nc2ccccc21", "=", 20.2),
    ("CCOC(=O)CCC(NC(=O)c1ccc(OCc2ccc3nc(-c4ccccc4)c(Cl)nc3c2)cc1)C(=O)OCC (configuration not stated)", ">", 31.6),
    ("Cc1ccnc(NC(NC(=O)c2ccccc2)(C(F)(F)F)C(F)(F)F)c1", ">", 100),
    ("Cc1cnc(C(=O)Nc2nc3ccc(S(=O)(=O)Nc4ccc(C5(C(F)(F)F)CC5)cc4)cc3[nH]2)cn1", "=", 9.34),
    ("CC(=O)O[C@H]1C(=O)[C@@]2(C)C(C(OC(=O)c3ccccc3)C3[C@@H](O)C(OC(=O)[C@@H](O)[C@H](NC(=O)c4ccccc4)c4ccc(C(F)(F)F)cc4)C(C)=C1C3(C)C)[C@]1(OC(C)=O)CO[C@@H]1C[C@@H]2O (some centres not stated)", ">", 25),
    ("CSc1nc(SC)c2c(CO)c(Br)n(Cc3ccccc3)c2n1", ">", 100),
    ("O=[N+]([O-])c1cc(-c2nc(-c3ccccc3)c(-c3ccccc3)[nH]2)c(O)c([N+](=O)[O-])c1", "=", 58.9),
]
